Hello, the source for this data is PubChem BioAssay AID2060328, in case you need it.

# viability, T/C annotations
test system: MDA-MB-231 multicell spheroids, viability (%T/C); experiment: Anticancer human tumor MDA-MB-231 cell line growth inhibition [IpAb]; conditions: second compound 0.316 µM; first compound 0.00949 µM; hits give low values;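 note: viability read after seven days of drug exposure; 100% = DMSO vehicle control viability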
Write the value in % as a bare number.

1. Cn1cnc2c(F)c(Nc3ccc(Br)cc3Cl)c(C(=O)NOCCO)cc21 + CC(C)NCC(C(=O)N1CCN(c2ncnc3c2C(C)CC3O)CC1)c1ccc(Cl)cc1 : 38

The molecule listed as CC(=O)c1c(C)c2cnc(Nc3ccc(N4CCNCC4)cn3)nc2n(C2CCCC2)c1=O + CCN1CCN(Cc2ccc(Nc3ncc(F)c(-c4cc(F)c5nc(C)n(C(C)C)c5c4)n3)nc2)CC1 shows viability, T/C equal to 46.2

The molecule listed as Cn1cnc2c(F)c(Nc3ccc(Br)cc3Cl)c(C(=O)NOCCO)cc21 + CCN1CCN(Cc2ccc(Nc3ncc(F)c(-c4cc(F)c5nc(C)n(C(C)C)c5c4)n3)nc2)CC1 shows viability, T/C equal to 28.2
